Where these numbers come from: patent US20030175678A1

- Test system: C. fascicularis suspension culture
- Procedure Summary: Differential induction of EGCG in Crassula fascicularis suspension culture (HPLC)
- Type: cell-based
- Test Context: B49 medium, treated on day 7 following subculture
Measurement Type: EGCG (mg/gdwt) two days after treatment
Could you give me the number in mg/gdwt? Just the number is fine.

The examples below pair each entry with its known result.
{"columns": ["Molecule", "Measurement Type", "Reading Unit", "Numeric Value"],
 "data": [
  ["CCOC(=O)C(C)(C)Oc1ccc(Cl)cc1 [Clofibrate]", "EGCG (mg/gdwt) two days after treatment", "mg/gdwt", 89],
  ["CC/C=C\\CC1C(=O)CCC1CC(=O)OC (stereo not shown) [methyl jasmonate]", "EGCG (mg/gdwt) two days after treatment", "mg/gdwt", 67],
  ["O=C(O)c1cc(O)c(O)c(O)c1", "EGCG (mg/gdwt) two days after treatment", "mg/gdwt", 82]
]}

Below: the item to evaluate.
Exam item: Answer with reported EGCG (mg/gdwt) two days after treatment of "O.O.O.O.O.O.O.O=S(=O)([O-])[O-].[Fe+2]"
Marked response: 90
